# credit: patent US20180127503A1

target_of_assay: T1, human ROR2 expressed on the cell surface (human, UniProt Q01974 34-943)
T1 construct: Endogenous ROR2 of human tumour cell lines; also called cell surface ROR2; ROR2 on tumour cell lines
experimental_protocol: flow cytometry, H524 cells (SCLC)
Design: reference not given here
Give binding intensity for every item shown.
Give bare numbers.

Worked cases, answers included:
>  <binder>
ROR2-240 full length human IgG1 antibody (antibody, V domains shown, also called clone #240 IgG1) VH: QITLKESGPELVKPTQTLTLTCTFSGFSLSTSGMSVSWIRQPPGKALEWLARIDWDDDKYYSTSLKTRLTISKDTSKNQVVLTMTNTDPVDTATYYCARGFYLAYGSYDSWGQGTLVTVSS VL: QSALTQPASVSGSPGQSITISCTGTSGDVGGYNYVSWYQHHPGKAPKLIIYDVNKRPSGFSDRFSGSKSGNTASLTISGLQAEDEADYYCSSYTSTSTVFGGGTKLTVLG

>  <measurement_label>
binding intensity

>  <measured_result>
7

$$$$
>  <binder>
ROR2-27 full length human IgG1 antibody (antibody, V domains shown, also called clone #27; clone #027 IgG1) VH: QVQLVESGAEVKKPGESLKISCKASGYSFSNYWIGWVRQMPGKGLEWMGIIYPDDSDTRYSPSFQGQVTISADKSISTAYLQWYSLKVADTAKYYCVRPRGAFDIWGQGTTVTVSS VL: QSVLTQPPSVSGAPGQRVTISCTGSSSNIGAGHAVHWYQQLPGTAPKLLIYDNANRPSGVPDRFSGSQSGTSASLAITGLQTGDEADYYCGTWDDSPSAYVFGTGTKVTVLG

>  <measurement_label>
binding intensity

>  <measured_result>
16

$$$$
>  <binder>
ROR2-23 full length human IgG1 antibody (antibody, V domains shown, The light chain of clone 023 is labelled kappa; also called clone #23; clone #023 IgG1) VH: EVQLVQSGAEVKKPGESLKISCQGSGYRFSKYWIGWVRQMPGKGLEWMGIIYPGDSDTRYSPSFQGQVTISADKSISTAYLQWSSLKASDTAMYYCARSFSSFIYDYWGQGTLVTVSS VL: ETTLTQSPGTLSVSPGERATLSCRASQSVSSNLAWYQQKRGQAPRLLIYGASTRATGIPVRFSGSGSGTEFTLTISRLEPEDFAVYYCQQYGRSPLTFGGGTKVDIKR

>  <measurement_label>
binding intensity

>  <measured_result>
28

$$$$
>  <binder>
ROR2-241 full length human IgG1 antibody (antibody, V domains shown) VH: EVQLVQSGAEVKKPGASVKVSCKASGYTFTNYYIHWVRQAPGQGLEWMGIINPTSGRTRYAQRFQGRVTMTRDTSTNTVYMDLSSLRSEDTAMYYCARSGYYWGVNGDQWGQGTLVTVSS VL: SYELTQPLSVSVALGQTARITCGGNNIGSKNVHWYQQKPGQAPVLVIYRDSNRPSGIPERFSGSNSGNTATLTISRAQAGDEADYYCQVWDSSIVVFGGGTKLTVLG

>  <measurement_label>
binding intensity

>  <measured_result>
32

$$$$

// next item, binding intensity requested
In: Specify measured binding intensity for ROR2-90 full length human IgG1 antibody (antibody, V domains shown, also called clone #90; antibody #90) VH: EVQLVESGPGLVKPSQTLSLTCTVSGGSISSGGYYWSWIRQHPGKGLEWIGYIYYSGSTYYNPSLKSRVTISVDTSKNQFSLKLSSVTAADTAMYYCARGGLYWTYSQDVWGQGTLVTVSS VL: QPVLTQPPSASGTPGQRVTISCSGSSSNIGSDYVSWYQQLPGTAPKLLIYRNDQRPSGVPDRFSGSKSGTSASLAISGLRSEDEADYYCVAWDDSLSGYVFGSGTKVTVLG .
Out: 20
